Target: Sphingosine 1-phosphate receptor 3 (Homo sapiens, UniProt Q99500)
Sequence (Q99500 whole entry): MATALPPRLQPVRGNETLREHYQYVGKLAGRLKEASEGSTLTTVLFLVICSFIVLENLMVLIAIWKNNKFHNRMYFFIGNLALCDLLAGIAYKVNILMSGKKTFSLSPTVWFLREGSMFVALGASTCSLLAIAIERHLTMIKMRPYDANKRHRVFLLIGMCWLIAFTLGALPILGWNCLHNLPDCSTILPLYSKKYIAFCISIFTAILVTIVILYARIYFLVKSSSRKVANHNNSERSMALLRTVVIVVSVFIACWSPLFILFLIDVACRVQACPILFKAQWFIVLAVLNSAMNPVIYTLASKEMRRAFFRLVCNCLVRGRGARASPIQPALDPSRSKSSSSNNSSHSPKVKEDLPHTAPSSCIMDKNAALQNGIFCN
Experiment: S1P3 receptor NFAT-BLA reporter inhibition, dose response, counter-screen for 5HT1E antagonist project, CHO cells, Ga15, NFAT beta-lactamase, FRET (AID 776)
Metric: IC50 (nM)
Only the number, expressed in nM, is required.

| Test Smiles | Assayed System | IC50, nM |
| --- | --- | --- |
| CCN(CC)c1ccc2c(Cl)c(Br)c(=O)oc2c1 | Sphingosine 1-phosphate receptor 3 (Homo sapiens, UniProt Q99500) | 1680 |

Prompt: Find the recorded IC50 belonging to CC(=O)Nc1cc(OC(C)=O)c2nonc2c1OC(C)=O and report it.
Completion: 1820

----------
Target: Sphingosine 1-phosphate receptor 3 (Homo sapiens, UniProt Q99500)
Experiment: S1P3 receptor NFAT-BLA reporter inhibition, dose response, counter-screen for 5HT1E antagonist project, CHO cells, Ga15, NFAT beta-lactamase, FRET (AID 776)
Attribute: IC50
Write down the numeric answer in µM and omit the unit.

Solved cases below.
| Molecule | Assayed System | Metric | Value Observed |
| --- | --- | --- | --- |
| COC(=O)/C(=C1/Oc2cc(C)oc(=O)c2S1)C(F)(F)F | Sphingosine 1-phosphate receptor 3 (Homo sapiens, UniProt Q99500) | IC50 | 1.42 |
| Cc1ccc(-n2nc3c([n+]2[O-])CCc2c-3n[o+]n2[O-])cc1 | Sphingosine 1-phosphate receptor 3 (Homo sapiens, UniProt Q99500) | IC50 | 5.78 |
| CSc1ccccc1NC=C1C(=O)CC(C)(C)CC1=O [SMR000111352] | Sphingosine 1-phosphate receptor 3 (Homo sapiens, UniProt Q99500) | IC50 | 4.33 |

Prompt: Item Clc1ccc(-n2nnnc2Sc2ncnc3sccc23)cc1 [SMR000066808] has what recorded IC50?
Completion: 7.55

----------
Target: Sphingosine 1-phosphate receptor 3 (Homo sapiens)
Experiment: S1P3 receptor NFAT-BLA reporter inhibition, dose response, counter-screen for 5HT1E antagonist project, CHO cells, Ga15, NFAT beta-lactamase, FRET (AID 776)
IC50 by entry:

| Compound | IC50 |
| --- | --- |
| CS(=O)(=O)c1nc(-c2cccs2)cc(C(F)(F)F)n1 [MLS000044645] | 3.45 µM |
| COc1ccccc1-c1nnc2n1N=C(c1ccc(O)c(O)c1)CS2 | > 50 µM |
| COc1cccc(N2CCN(c3ncnc4c3cnn4-c3ccc(C)cc3C)CC2)c1 [SMR000017007] | 5.06 µM |
| CCOc1ccc(C2=Nn3c(nnc3-c3ccccc3OC)SC2)cc1 | > 12.4 µM |
| CS(=O)(=O)c1nc(-c2ccco2)cc(C(F)(F)F)n1 [MLS000044646] | 4.88 µM |
| N#C/C(=C/c1ccc(N2CCCCCC2)o1)c1ccc(F)cc1 [MLS000051438] | 4.69 µM |

Prompt: Suppose we examine the compound COc1cccc(N2CCN(c3ncnc4c3[nH]c3ccccc34)CC2C)c1 (stereo not given) ; what IC50 value has been reported?
Completion: 4.3 µM

Prompt: // query IC50 value for entry CCCOc1ccc2nc(NC(=O)OC)[nH]c2c1 [SMR000058208]
Completion: > 50 µM

Prompt: For the compound shown here, CCn1c(=O)c(C(=O)Nc2nc3ccccc3[nH]2)c(O)c2ccccc21 [MLS000027148] , give the reported IC50.
Completion: > 12.4 µM

Prompt: Dear colleague, I am looking for the recorded IC50 of the following compound: COc1cc2c(cc1OC)C1=C(C#N)CC=C(NS(=O)(=O)c3ccccc3)N1CC2 [SMR000092093]
Completion: > 50 µM
